Test Protocol: Aqueous solubility in PBS buffer at pH 7.4 after 24 hrs
Assay type: physicochemical
Measured solubility at 24 h by item
Quantity Name: solubility at 24 h (µg/mL)

{"Line Notation": "COc1ccc2[nH]c(-c3nc(NCCN4CCCC4)c4ccccc4n3)c(C=O)c2c1", "Quantity Name": "solubility at 24 h", "Value Unit": "µg/mL", "Value Reported": 56.4}
{"Line Notation": "CN(C)CCCNc1nc(-c2[nH]c3ccccc3c2C=O)nc2ccccc12", "Quantity Name": "solubility at 24 h", "Value Unit": "µg/mL", "Value Reported": 41.1}
{"Line Notation": "O=Cc1c(-c2nc(NCCCCN3CCCC3)c3ccccc3n2)[nH]c2ccccc12", "Quantity Name": "solubility at 24 h", "Value Unit": "µg/mL", "Value Reported": 15.1}
{"Line Notation": "CCN(CC)CCCCNc1nc(-c2[nH]c3ccc(OC)cc3c2C=O)nc2ccccc12", "Quantity Name": "solubility at 24 h", "Value Unit": "µg/mL", "Value Reported": 65.9}
{"Line Notation": "COc1ccc2[nH]c(-c3nc(NCCCCN4CCCC4)c4ccccc4n3)c(C=O)c2c1", "Quantity Name": "solubility at 24 h", "Value Unit": "µg/mL", "Value Reported": 73.3}
